The reported numbers originate from patent US4183940A.

# MIC per entry for Candida albicans
MEASUREMENT NAME: MIC (µg/mL)

{"columns": ["MOLECULE", "LIMIT QUALIFIER", "VALUE"],
 "data": [
  ["c1ccc(C2(n3ccnc3)c3ccccc3C(c3ccccc3)(n3ccnc3)c3ccccc32)cc1 (stereo not drawn) [drawing 26]", "=", 4],
  ["CSc1ccc(C2(n3ccnc3)c3ccccc3-c3ccccc32)cc1 [reference compound]", "=", 100],
  ["Cc1ccc(C2(n3ccnc3)c3ccccc3C(=O)c3ccccc32)cc1 [drawing 24]", "=", 64],
  ["c1ccc(C2(n3ccnc3)c3ccccc3Sc3ccccc32)cc1 [reference compound]", "=", 40],
  ["c1ccc(C2(n3ccnc3)c3ccccc3Oc3ccccc32)cc1 [reference compound]", "=", 20],
  ["Cc1ccccc1C1(n2ccnc2)c2ccccc2C(=O)c2ccccc21 [drawing 22]", ">", 64]
]}

* * *

Each entry below carries its reported MIC values in γ/ml of nutrient medium for Penicillium commune.
- Test system: Penicillium commune
- EXPERIMENTAL DETAILS: Antimycotic in vitro activity (series dilution test), Penicillium commune
- Format: cell-based
- TEST SETTINGS: Sabouraud's milieu d'epreuve, 28° C., 24 to 96 hours
MEASUREMENT NAME: MIC values in γ/ml of nutrient medium for Penicillium commune (µg/mL)

{"columns": ["COMPOUND", "LIMIT QUALIFIER", "VALUE"],
 "data": [
  ["Cc1ccc(C2(n3ccnc3)c3ccccc3C(=O)c3ccccc32)cc1 [drawing 24]", "=", 64],
  ["Cc1ccc(C2(n3ccnc3)c3ccccc3C(=O)c3ccccc32)cc1 [drawing 25]", "=", 8],
  ["O=C1c2ccccc2C(c2ccccc2)(n2ccnc2)c2ccccc21 [drawing 20]", "=", 8],
  ["Cc1ccccc1C1(n2ccnc2)c2ccccc2C(=O)c2ccccc21 [drawing 22]", ">", 64],
  ["O=C1c2ccccc2C(c2ccccc2)(n2ccnc2)c2ccccc21 [drawing 19]", "=", 8],
  ["O=C1c2ccccc2C(c2ccccc2)(n2ccnc2)c2ccccc21 [drawing 21]", "=", 8],
  ["Cc1ccccc1C1(n2ccnc2)c2ccccc2C(=O)c2ccccc21 [drawing 23]", "=", 4]
]}

* * *

Each entry below carries its reported MIC.
- System: Penicillium commune
MEASUREMENT NAME: MIC

{"columns": ["MOLECULE", "STUDY SYSTEM", "VALUE"],
 "data": [
  ["c1ccc(C2(n3ccnc3)c3ccccc3Sc3ccccc32)cc1 [reference compound]", "Penicillium commune", "> 100 µg/mL"],
  ["O=C1c2ccccc2C(c2ccccc2)(n2ccnc2)c2ccccc21 [drawing 18]", "Penicillium commune", "4 µg/mL"],
  ["c1ccc(C2(n3ccnc3)c3ccccc3Oc3ccccc32)cc1 [reference compound]", "Penicillium commune", "100 µg/mL"],
  ["CSc1ccc(C2(n3ccnc3)c3ccccc3-c3ccccc32)cc1 [reference compound]", "Penicillium commune", "> 100 µg/mL"],
  ["c1ccc(C2(n3ccnc3)c3ccccc3C(c3ccccc3)(n3ccnc3)c3ccccc32)cc1 (stereo not drawn) [drawing 26]", "Penicillium commune", "> 64 µg/mL"],
  ["CSc1ccc(C2(n3ccnc3)c3ccccc3CCc3ccccc32)cc1 [reference compound]", "Penicillium commune", "> 100 µg/mL"]
]}

* * *

- Test system: Microsporon felineum
- EXPERIMENTAL DETAILS: Antimycotic in vitro activity (series dilution test), Microsporon felineum
- Type: cell-based
- TEST SETTINGS: Sabouraud's milieu d'epreuve, 28° C., 24 to 96 hours; read-out: MIC values in γ/ml of nutrient medium for Microsporon felineum
Each entry below carries its reported MIC.
MEASUREMENT NAME: MIC

{"columns": ["COMPOUND", "MEASUREMENT NAME", "VALUE"],
 "data": [
  ["Cc1ccc(C2(n3ccnc3)c3ccccc3C(=O)c3ccccc32)cc1 [drawing 24]", "MIC", "8 µg/mL"],
  ["c1ccc(C2(n3ccnc3)c3ccccc3Oc3ccccc32)cc1 [reference compound]", "MIC", "> 100 µg/mL"],
  ["CSc1ccc(C2(n3ccnc3)c3ccccc3-c3ccccc32)cc1 [reference compound]", "MIC", "20 µg/mL"],
  ["Cc1ccccc1C1(n2ccnc2)c2ccccc2C(=O)c2ccccc21 [drawing 22]", "MIC", "< 1 µg/mL"],
  ["CSc1ccc(C2(n3ccnc3)c3ccccc3CCc3ccccc32)cc1 [reference compound]", "MIC", "40 µg/mL"],
  ["c1ccc(C2(n3ccnc3)c3ccccc3Sc3ccccc32)cc1 [reference compound]", "MIC", "> 100 µg/mL"]
]}

* * *

# MIC per entry for Trichophyton mentagrophytes

{"columns": ["COMPOUND", "MIC"],
 "data": [
  ["c1ccc(C2(n3ccnc3)c3ccccc3Oc3ccccc32)cc1 [reference compound]", "> 100 µg/mL"],
  ["Cc1ccc(C2(n3ccnc3)c3ccccc3C(=O)c3ccccc32)cc1 [drawing 24]", "< 1 µg/mL"],
  ["c1ccc(C2(n3ccnc3)c3ccccc3C(c3ccccc3)(n3ccnc3)c3ccccc32)cc1 (centres unmarked) [drawing 26]", "32 µg/mL"],
  ["c1ccc(C2(n3ccnc3)c3ccccc3Sc3ccccc32)cc1 [reference compound]", "> 100 µg/mL"],
  ["Cc1ccccc1C1(n2ccnc2)c2ccccc2C(=O)c2ccccc21 [drawing 22]", "< 1 µg/mL"],
  ["CSc1ccc(C2(n3ccnc3)c3ccccc3-c3ccccc32)cc1 [reference compound]", "< 4 µg/mL"],
  ["CSc1ccc(C2(n3ccnc3)c3ccccc3CCc3ccccc32)cc1 [reference compound]", "10 µg/mL"],
  ["O=C1c2ccccc2C(c2ccccc2)(n2ccnc2)c2ccccc21 [drawing 18]", "< 1 µg/mL"]
]}

* * *

Each entry below carries its reported MIC values in γ/ml of nutrient medium for Aspergillus species.
- System: Aspergillus species
- EXPERIMENTAL DETAILS: Antimycotic in vitro activity (series dilution test), Aspergillus species
- Type: cell-based
- TEST SETTINGS: Sabouraud's milieu d'epreuve, 28° C., 24 to 96 hours
MEASUREMENT NAME: MIC values in γ/ml of nutrient medium for Aspergillus species (µg/mL)

{"columns": ["COMPOUND", "U", "LIMIT QUALIFIER", "VALUE"],
 "data": [
  ["O=C1c2ccccc2C(c2ccccc2)(n2ccnc2)c2ccccc21 [drawing 18]", "µg/mL", "=", 4],
  ["O=C1c2ccccc2C(c2ccccc2)(n2ccnc2)c2ccccc21 [drawing 19]", "µg/mL", "=", 32],
  ["Cc1ccc(C2(n3ccnc3)c3ccccc3C(=O)c3ccccc32)cc1 [drawing 25]", "µg/mL", ">", 64],
  ["Cc1ccccc1C1(n2ccnc2)c2ccccc2C(=O)c2ccccc21 [drawing 23]", "µg/mL", ">", 64],
  ["O=C1c2ccccc2C(c2ccccc2)(n2ccnc2)c2ccccc21 [drawing 20]", "µg/mL", "=", 64],
  ["O=C1c2ccccc2C(c2ccccc2)(n2ccnc2)c2ccccc21 [drawing 21]", "µg/mL", "=", 32]
]}
